Recorded values, source paper PMC7700809.

assay_name: In vivo plasma pharmacokinetics in beagle dogs
reported_conditions: beagle, po, Dog, P.O. 5 mg/kg
measurement_kind: AUC(0-inf)
Give the number first and the unit second.

Exercise: Find the recorded AUC(0-inf) belonging to "CC[C@H]1CN2CCc3cc(OC)c(OC)cc3[C@@H]2C[C@@H]1C[C@H]1NCCc2cc(OC)c(OC)cc21" and report it.
Key: 1740 ng·h/mL

###

assay_name: In vivo plasma pharmacokinetics in rats
Set-up: species or system Sprague-Dawley rats
reported_conditions: Sprague-Dawley, po, Rat, P.O. 10 mg/kg
measurement_kind: AUC(0-inf) (ng·h/mL)
# output: bare number, implied unit ng·h/mL

Exercise: Find the recorded AUC(0-inf) belonging to CC[C@H]1CN2CCc3cc(OC)c(OC)cc3[C@@H]2C[C@@H]1C[C@H]1NCCc2cc(OC)c(OC)cc21 [Emetine] and report it.
Key: 220
